Reference source: paper PMC11237593

system-tested: T1, OC43 S1B+C (S1B and S1C domains of the hCoV-OC43 spike glycoprotein) (human coronavirus OC43, UniProt P36334 321-675)
T1 construct: also called recombinant OC43 S1B+C; recombinant OC43 protein; source: Expi293F, transfected, purified from supernatant (Ni-NTA IMAC, SEC); not shown: His6, C-terminal, cleaved
T1 sequence (looked up): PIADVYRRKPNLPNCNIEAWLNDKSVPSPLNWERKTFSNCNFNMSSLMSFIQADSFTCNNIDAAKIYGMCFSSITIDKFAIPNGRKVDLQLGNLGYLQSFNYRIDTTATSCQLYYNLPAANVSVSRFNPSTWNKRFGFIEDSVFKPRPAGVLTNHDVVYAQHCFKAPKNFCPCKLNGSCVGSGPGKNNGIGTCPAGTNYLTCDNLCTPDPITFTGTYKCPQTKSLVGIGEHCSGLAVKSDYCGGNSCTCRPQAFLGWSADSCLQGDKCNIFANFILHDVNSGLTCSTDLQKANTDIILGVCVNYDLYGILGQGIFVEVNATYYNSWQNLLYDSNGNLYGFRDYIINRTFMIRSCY
assay-remarks: BLI
condition-set: both partners purified
reported-endpoint: kon

{"binder": "WNb 285 (VHH) VHH: QVQLQESGGGLVQAGGSLRLSCAASGRTFSDYAMGWFRQAPGKEREFVAAISWSGGTTYYADSVKGRFTISRDNAKNTVYLQMNSLTPEDTAVYYCAADYDYGWGRVRVSEYDYWGQGTQVTVSS", "reported-endpoint": "kon", "measured-result": "106000 M⁻¹ s⁻¹"}
{"binder": "WNb 282 (VHH) VHH: QVQLQESGGGLVQAGDSLRLSCAASGRTFSDYFMGWFRQAPGKEREFVASISWSGGTTYYADSVKGRFTISRDNAKNTVYLQMNRVKSEDTAVYYCAAARDMGWGRTGENEYDYWGQGTQVTVSS", "reported-endpoint": "kon", "measured-result": "79000 M⁻¹ s⁻¹"}
{"binder": "WNb 292 (VHH) VHH: QVQLQESGGGLVQAGASLRLSCAASGRTFSDYAMGWFRQAPGKEREFVAAISWSGGTTYYADSVKGRFTISRDNAKNTVYLQMNSLKPEDTAVYYCAANTDYGLGLVRAYEYDYWGQGTQVTVSS", "reported-endpoint": "kon", "measured-result": "75000 M⁻¹ s⁻¹"}
{"binder": "WNb 293 (VHH) VHH: QVQLQESGGGSVQAGDSLRLSCVASGRTFSSYALGWFRRAPGKEREFVAAISWSGGTTYYADSVKGRFTISRDNAKNTVYLQMNSLKPEDTAVYYCAALWDGGSWYPEGLSDFGSWGQGTQVTVSS", "reported-endpoint": "kon", "measured-result": "91000 M⁻¹ s⁻¹"}
{"binder": "WNb 286 (VHH) VHH: QVQLQESGGGLVQAGGSLRLSCAASGRTFSSYAMGWFHQAPGKEREFVASISWSGGTTYYADSVKGRFTISRDNAKNTVYLQMNSLKPEDTAVYYCAAAVDYGLGLYRVGEYDSWGQGTQVTVSS", "reported-endpoint": "kon", "measured-result": "42000 M⁻¹ s⁻¹"}
{"binder": "WNb 281 (VHH) VHH: QVQLQESGGGLVQAGGSLRLSCAASGRTFSDYFMGWFRQAPGKEREFVTAISWSGGSTYYADSVKGRFTISRDNAKNTVFLQMNSLKPEDTAVYYCAAALDEGWARVAGPEYDYWGQGTQVTVSS", "reported-endpoint": "kon", "measured-result": "118000 M⁻¹ s⁻¹"}
{"binder": "WNb 284 (VHH) VHH: QVQLQESGGGLVQAGGPLRLSCAASGRTFSDYFMGWFRQAPGMEREFVASISWSGGTTYYADSVKGRFTISRDNAKNTVYLQMNSLKPEDTAVYYCAAAIDYGLGLTVEYEYDYWGQGTQVTVSS", "reported-endpoint": "kon", "measured-result": "91000 M⁻¹ s⁻¹"}
{"binder": "WNb 280 (VHH) VHH: QVQLQESGGGLVQAGGSLRLSCAASGRTFSNYFMGWFRQAPGKEREFVAAISWSGGSTYYTDSVKGRFTISRDNAKNTVYLQMNSLKPEDTAVYYCAGGLDMGWSRVNLGEYDYWGQGTQVTVSS", "reported-endpoint": "kon", "measured-result": "70000 M⁻¹ s⁻¹"}
